# targetEntity: human kallikrein 7 (Homo sapiens, UniProt P49862)
# Sequence (P49862 30-253): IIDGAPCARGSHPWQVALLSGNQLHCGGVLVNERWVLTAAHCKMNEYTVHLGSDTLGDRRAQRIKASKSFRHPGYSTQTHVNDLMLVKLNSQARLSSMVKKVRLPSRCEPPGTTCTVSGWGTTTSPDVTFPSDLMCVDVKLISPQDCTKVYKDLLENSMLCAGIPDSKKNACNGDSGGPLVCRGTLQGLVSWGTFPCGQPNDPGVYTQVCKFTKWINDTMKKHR
# protocolSummary: Kallikrein-7 inhibitory activity in vitro (fluorescence-quenched substrate)
# Assay type: biochemical
# experimentalContext: hKallikrein7 IC 50, Table 11
pIC50: −log10 of the molar value. Where a SMILES comes first, the peptide text is derived from it. Bridges are numbered along the chain shown (N, C = ends). [ ]: non-standard residue; d: D form. The star is where a group is joined. ξ: configuration not given here. NMeY = CN[C@@H](Cc1ccc(O)cc1)C(=O)O; Butanoyl(2ξ-Me) = CCC(C)C(=O)*; Ile(3ξ) = CCC(C)[C@H](N)C(=O)O
If the reported pIC50 equals or exceeds 8, assign 1. If not, assign 0.

Would you please look over these solved cases?
compound	discreteLabel
CCC(C)C(=O)N[C@@H](CCC(N)=O)C(=O)N[C@@H]1C(=O)N[C@@H](CC(C)C)C(=O)N2CCC[C@H]2C(=O)N[C@@H](C(C)CC)C(=O)N(C)[C@@H](Cc2ccc(O)cc2)C(=O)N[C@@H](C(C)CC)C(=O)O[C@@H]1C (stereo partly shown) [formula XIV] ({Butanoyl(2ξ-Me)}-QTLP[Ile(3ξ)][NMeY][Ile(3ξ)]; ester 2-C)	0
CCC(C)C(=O)N[C@@H](CCC(N)=O)C(=O)N[C@@H]1C(=O)N[C@@H](CC(C)C)C(=O)NC2CC[C@H](O)N(C2=O)[C@@H](C(C)CC)C(=O)N(C)[C@@H](Cc2ccc(O)cc2)C(=O)N[C@@H](C(C)CC)C(=O)O[C@@H]1C (stereo partly shown)	1
CCC(C)C1NC(=O)C(Cc2ccc(O)cc2)N(C)C(=O)C(C(C)CC)N2C(=O)C(CCC2OC)NC(=O)C(CC(C)C)NC(=O)C(NC(=O)C(CCC(N)=O)NC(=O)C(C)C)C(C)OC1=O (stereo not shown)	1

Task: Record CCCCCCCCOC1CCC2NC(=O)C(CC(C)C)NC(=O)C(NC(=O)C(CCC(N)=O)NC(=O)C(C)C)C(C)OC(=O)C(C(C)CC)NC(=O)C(Cc3ccc(O)cc3)N(C)C(=O)C(C(C)CC)N1C2=O (stereo not shown) ; criterion: pIC50 no lower than 8. Met?
Output: 0

Task: Record CCC(C)C(=O)N[C@@H](CCC(N)=O)C(=O)N[C@@H]1C(=O)N[C@@H](CC(C)C)C(=O)N[C@H]2CC=CN(C2=O)[C@H](C(C)CC)C(=O)N(C)[C@@H](Cc2ccc(O)cc2)C(=O)N[C@@H](C(C)CC)C(=O)O[C@@H]1C (stereo partly shown) ; criterion: pIC50 no lower than 8. Met?
Output: 1
